Ref: paper PMC5881522

TARGET: tropomyosin E180G mutant-containing thin filaments (Homo sapiens, UniProt P19429+P45379+P63316)
Construct: isolate troponin from 100 mg of donor heart tissue; from tissue; host or cells: troponin: human donor heart; tropomyosin: baculovirus/Sf9 (gift); actin: rabbit fast-twitch skeletal muscle
ASSAY_METHOD_TEXT: Single [Ca2+] in vitro motility assay screen for re-coupling
Assay type: biochemical
RECORDED_CONDITIONS: 100 μM compound; 0.037 μM Ca2+; difference between motility (%) in phosphorylated and unphosphorylated thin filaments, TPM1 E180G; >10% = re-coupling
Item-by-item account of Coupling Difference (Initial Screen E180G)
ASSAY_METRIC: Coupling Difference (Initial Screen E180G) (%)

# COMPOUND, READOUT_UNITS, MEASURED_RESULT
records = [
    ("COc1cc([C@@H]2Oc3c(O)cc([C@H]4Oc5cc(O)cc(O)c5C(=O)[C@@H]4O)cc3[C@H]2CO)ccc1O [Silychristin]", "%", 35),
    ("Oc1cc(O)c2c(c1)O[C@H](c1cc(O)c(O)c(O)c1)[C@H](O)C2 [Epigallocatechin]", "%", 62),
    ("CCOc1cccc(C(=O)OC2COc3cc(OC)cc(OC)c3C2)c1 (centres unmarked) [compound 16]", "%", 6.0),
    ("O=C(O[C@H]1COc2cc(O)cc(O)c2C1)c1cccc(O)c1 [compound 12]", "%", "−1.0"),
    ("COc1cc(/C=C/c2ccc(O)cc2)cc(OC)c1 [Pterostilbene]", "%", 50),
    ("O=C1c2c(O)cc(O)cc2OC(c2ccc(O)c(O)c2)C1O (centres unmarked) [Taxifolin]", "%", 60),
    ("COc1cc([C@H]2Oc3cc([C@H]4Oc5cc(O)cc(O)c5C(=O)[C@@H]4O)ccc3O[C@@H]2CO)ccc1O [Silybin A]", "%", 5),
    ("COc1cccc(C(=O)OC2COc3cccc(O)c3C2)c1 (centres unmarked) [compound 4]", "%", 27.0),
    ("COc1cc(C2Oc3ccc([C@H]4Oc5cc(O)cc(O)c5C(=O)[C@@H]4O)cc3OC2CO)ccc1O (some centres unmarked) [Isosilybin]", "%", 4),
    ("O=C(O[C@@H]1Cc2c(O)cc(O)cc2O[C@@H]1c1cc(O)c(O)c(O)c1)c1cc(O)c(O)c(O)c1 [EGCG, epigallocatechin-3 gallate]", "%", 23.0),
    ("COc1cc([C@@H]2Oc3cc(-c4oc5cc(O)cc(O)c5c(=O)c4O)ccc3O[C@H]2CO)ccc1O [Dehydrosilybin B, 2,3-dehydrosilybin B]", "%", 62),
    ("COc1cccc(-c2cc(C(=O)OC3COc4cc(O)cc(O)c4C3)ccc2OC)c1 (centres unmarked) [compound 2]", "%", 27.0),
    ("COC(=O)N1CCN(Cc2cccc(NC(=O)Nc3ccc(C)nc3)c2F)CC1 [Omecamtiv Mecarbil]", "%", 0),
    ("O=c1c(O)c(-c2ccc(O)c(O)c2)oc2cc(O)cc(O)c12 [Quercetin]", "%", 51),
    ("COc1cc([C@@H]2[C@H]3CO[C@@]4(O)C(=O)[C@@H]2C=C([C@H]2Oc5cc(O)cc(O)c5C(=O)[C@@H]2O)[C@@H]34)ccc1O [Silydianin]", "%", 20),
    ("O=C(O[C@@H]1Cc2c(O)cc(O)cc2O[C@@H]1c1ccc(O)c(O)c1)c1cc(O)c(O)c(O)c1 [Epicatechin Gallate]", "%", 8),
    ("COc1ccc(C(=O)OC2COc3cc(OC)cc(OC)c3C2)cc1 (centres unmarked) [compound 7]", "%", "−11.0"),
    ("Oc1cc(O)c2c(c1)O[C@H](c1cc(O)c(O)c(O)c1)[C@@H](O)C2 [Gallocatechin]", "%", 68),
    ("COc1cc([C@H]2Oc3cc(-c4oc5cc(O)cc(O)c5c(=O)c4O)ccc3O[C@@H]2CO)ccc1O [Dehydrosilybin A, 2,3-dehydrosilybin A]", "%", 3),
    ("CO[C@@H]1[C@@H](OC(N)=O)[C@@H](O)[C@H](Oc2ccc3c(O)c(NC(=O)c4ccc(O)c(CC=C(C)C)c4)c(=O)oc3c2C)OC1(C)C [Novobiocin]", "%", 46),
    ("NCCCCCCNS(=O)(=O)c1cccc2c(Cl)cccc12 [W-7]", "%", 50),
    ("COc1ccc(C(=O)OC2COc3cccc(O)c3C2)cc1 (centres unmarked) [compound 9]", "%", 20.0),
    ("COc1cc(C2Oc3cc([C@H]4Oc5cc(O)cc(O)c5C(=O)[C@@H]4O)ccc3OC2CO)ccc1O (some centres unmarked) [Silybin]", "%", 12.0),
    ("COc1cc(OC)cc(C(=O)OC2COc3cc(OC)cc(OC)c3C2)c1 (centres unmarked) [compound 19]", "%", 24.0),
    ("COc1ccc(-c2coc3cc(O[C@@H]4O[C@H](CO)[C@@H](O)[C@H](O)[C@H]4O)cc(O)c3c2=O)cc1 [Sissotrin]", "%", 30),
    ("Oc1cc(O)c2c(c1)O[C@H](c1ccc(O)c(O)c1)[C@H](O)C2 [Epicatechin]", "%", 69),
    ("Oc1ccc(/C=C/c2cc(O)cc(O)c2)cc1 [Resveratrol]", "%", 63),
    ("COc1cc([C@@H]2Oc3cc([C@H]4Oc5cc(O)cc(O)c5C(=O)[C@@H]4O)ccc3O[C@H]2CO)ccc1O [Silybin B]", "%", 55),
]

###

pEC50 values for the molecules below.
TARGET: tropomyosin E180G mutant-containing thin filaments (Homo sapiens, UniProt P19429+P45379+P63316)
Construct: isolate troponin from 100 mg of donor heart tissue; tropomyosin: baculovirus/Sf9 (gift); actin: rabbit fast-twitch skeletal muscle
ASSAY_METHOD_TEXT: Single [Ca2+] in vitro motility assay screen for re-coupling
RECORDED_CONDITIONS: dose-response of % motility difference at 0.037 μM Ca2+, Hill fit
pEC50: −log10 of the molar value.
ASSAY_METRIC: pEC50

# MOLECULE, ASSAY_METRIC, MEASURED_RESULT
data = [
    ("COc1cc([C@@H]2Oc3cc([C@H]4Oc5cc(O)cc(O)c5C(=O)[C@@H]4O)ccc3O[C@H]2CO)ccc1O", "pEC50", 4.41),
    ("CCOc1cccc(C(=O)OC2COc3cc(OC)cc(OC)c3C2)c1 (stereo not shown)", "pEC50", 4.51),
    ("COc1ccc(C(=O)OC2COc3cccc(O)c3C2)cc1 (stereo not shown)", "pEC50", 4.46),
    ("COc1cccc(-c2cc(C(=O)OC3COc4cc(O)cc(O)c4C3)ccc2OC)c1 (stereo not shown)", "pEC50", 4.52),
    ("COc1cc(C2Oc3cc([C@H]4Oc5cc(O)cc(O)c5C(=O)[C@@H]4O)ccc3OC2CO)ccc1O (stereo partly shown)", "pEC50", 4.33),
    ("O=c1c(O)c(-c2ccc(O)c(O)c2)oc2cc(O)cc(O)c12", "pEC50", 5.10),
    ("COc1cc([C@@H]2Oc3cc(-c4oc5cc(O)cc(O)c5c(=O)c4O)ccc3O[C@H]2CO)ccc1O [Dehydrosilybin B, 2,3-dehydrosilybin B]", "pEC50", 4.33),
    ("COc1cccc(C(=O)OC2COc3cccc(O)c3C2)c1 (stereo not shown)", "pEC50", 4.47),
    ("O=C(O[C@@H]1Cc2c(O)cc(O)cc2O[C@@H]1c1cc(O)c(O)c(O)c1)c1cc(O)c(O)c(O)c1 [EGCG, epigallocatechin-3 gallate]", "pEC50", 4.23),
    ("COc1ccc(C(=O)OC2COc3cc(OC)cc(OC)c3C2)cc1 (stereo not shown)", "pEC50", 4.17),
]

###

TARGET: tropomyosin E180G mutant-containing thin filaments (Homo sapiens, UniProt P19429+P45379+P63316)
Construct: isolate troponin from 100 mg of donor heart tissue; from tissue; host or cells: troponin: human donor heart; tropomyosin: baculovirus/Sf9 (gift); actin: rabbit fast-twitch skeletal muscle
ASSAY_METHOD_TEXT: Single [Ca2+] in vitro motility assay screen for re-coupling
Format: biochemical
RECORDED_CONDITIONS: E180G thin filaments, 0.037 μM Ca2+

# COMPOUND, re-coupling activity (in words)
data = [
    ("COc1cc(/C=C/c2ccc(O)cc2)cc(OC)c1", "effective re-couplers"),
    ("Oc1ccc(/C=C/c2cc(O)cc(O)c2)cc1", "effective re-couplers"),
    ("COc1cc(OC)c2c(c1)OCC(OC(=O)c1ccc(OC(C)=O)c(CC=C(C)C)c1)C2 (stereo not drawn)", "inactive"),
    ("CCOc1cccc(C(=O)OC2COc3cc(OC)cc(OC)c3C2)c1 (stereo not drawn)", "inactive"),
    ("COc1cccc(-c2cc(C(=O)OC3COc4cc(O)cc(O)c4C3)ccc2OC)c1 (stereo not drawn)", "effective re-couplers"),
    ("NCCCCCCNS(=O)(=O)c1cccc2c(Cl)cccc12", "effective re-couplers"),
]
